assayed.system: CB1 receptor (Homo sapiens)
method.notes: cAMP formation inhibition experiment through a cannabinoid receptor (forskolin stimulation), CB1
Type: cell-based
Set-up: expressed in transfected cells; host or cells: CHO cells
endpoint: IC50 (µM)
# number only, unit µM dropped from output

[
  {
    "molecule": "CCCCn1c2c(cc(C(=O)NC3(CC(=O)O)CCCCC3)c1=O)CCCCCC2",
    "result.units": "µM",
    "numeric.readout": 0.268
  },
  {
    "molecule": "CCCC(CC(=O)O)NC(=O)c1cc2c(n(CC3CCCCC3)c1=O)CCCCCC2 (centres unmarked)",
    "result.units": "µM",
    "numeric.readout": 0.549
  },
  {
    "molecule": "O=C(O)Cc1csc(NC(=O)c2cc3c(n(CC4CCCCC4)c2=O)CCCCCC3)c1",
    "result.units": "µM",
    "numeric.readout": 0.606
  },
  {
    "molecule": "CCS(=O)(=O)NNC(=O)C(C)(C)NC(=O)c1cc2c(n(CC3CCCCC3)c1=O)CCCCCC2",
    "result.units": "µM",
    "numeric.readout": 0.312
  },
  {
    "molecule": "CCc1c(C)cc(C(=O)NC2(CC(=O)O)CCCC2)c(=O)n1Cc1ccc(F)cc1",
    "result.units": "µM",
    "numeric.readout": 0.375
  }
]

For "O=C(NC1(C(=O)O)CCCCC1)c1cc2c(n(Cc3ccc(F)c(F)c3)c1=O)CCCCCC2" the molecule record lists IC50 as 0.127

Item: "CC(C)C[C@@H](CC(=O)O)NC(=O)c1cc2c(n(Cc3ccc(F)cc3)c1=O)CCCCCC2" | IC50: 0.252

Documented IC50 of "O=C(O)COc1ccc(NC(=O)c2cc3c(n(CC4CCCCC4)c2=O)CCCCCC3)cc1" : 1.55

IC50 for "CC(C)(CCNC(=O)c1cc2c(n(CC3CCCCC3)c1=O)CCCCCC2)C(=O)O" is 0.322

For record O=C(O)CC(NC(=O)c1cc2c(n(Cc3ccc(F)cc3)c1=O)CCCCCC2)C(F)(F)F (centres unmarked) the listed IC50 is 0.685

// recorded IC50 for "CC(=O)N1CCN(C(=O)C(C)(C)NC(=O)c2cc3c(n(CC4CCCCC4)c2=O)CCCCCC3)CC1" : 0.431

For CCNC(=O)C1CCCN(C(=O)C(C)(C)NC(=O)c2cc3c(n(CC4CCCCC4)c2=O)CCCCCC3)C1 (centres unmarked) the molecule record lists IC50 as 1.21

O=C(NC(C(=O)O)C(F)(F)F)c1cc2c(n(CC3CCCCC3)c1=O)CCCCCC2 (centres unmarked) yielded IC50 of 0.369

GET /value?item= C/C=C/C(CC(=O)O)NC(=O)c1cc2c(n(CC3CCCCC3)c1=O)CCCCCC2 (centres unmarked) &field=IC50 returns 0.29

Summary for this molecule, "CCCCn1c2c(cc(C(=O)NC(CC)(CC)CC(=O)O)c1=O)CCCCCC2" : IC50 is 0.152

----------
pKi by entry:
assayed.system: CB2 receptor (Homo sapiens)
Sequence (P34972 whole entry): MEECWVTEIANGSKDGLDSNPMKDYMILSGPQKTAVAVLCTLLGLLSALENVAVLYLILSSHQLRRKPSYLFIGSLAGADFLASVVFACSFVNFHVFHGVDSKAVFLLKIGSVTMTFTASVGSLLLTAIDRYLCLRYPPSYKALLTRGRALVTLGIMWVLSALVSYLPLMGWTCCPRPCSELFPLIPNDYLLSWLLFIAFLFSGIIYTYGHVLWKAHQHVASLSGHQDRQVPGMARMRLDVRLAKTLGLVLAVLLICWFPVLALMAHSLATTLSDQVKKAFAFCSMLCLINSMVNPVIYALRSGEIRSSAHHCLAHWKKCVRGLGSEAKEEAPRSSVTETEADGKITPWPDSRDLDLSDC
method.notes: Human cannabinoid receptor bonding inhibition test ([3H]CP55940), CB2
Assay type: binding
Design: expressed in transfected cells; membrane fraction
// pKi here means minus log10 of the molar concentration (mol/L)

Example entries begin here.
[
  {
    "molecule": "O=C(O)Cc1cnc(NC(=O)c2cc3c(n(CCCC(F)(F)F)c2=O)CCCCCC3)s1 [Compound X-115]",
    "pKi": 8.48
  },
  {
    "molecule": "CCCCC(CC(=O)O)NC(=O)c1cc2c(n(CC3CCCCC3)c1=O)CCCCCC2 (stereo not shown) [Compound X-67]",
    "pKi": 7.02
  },
  {
    "molecule": "CCCCn1c(CCC)c(CC)cc(C(=O)NC2(CC(=O)O)CCCCC2)c1=O [Compound X-174]",
    "pKi": 8.05
  },
  {
    "molecule": "O=C(NC1(C(=O)O)CCCCC1)c1cc2c(n(Cc3ccc(F)c(F)c3)c1=O)CCCCCC2 [XI-017]",
    "pKi": 8.18
  },
  {
    "molecule": "CC(C)(CCNC(=O)c1cc2c(n(CC3CCCCC3)c1=O)CCCCCC2)C(=O)O [III-017]",
    "pKi": 7.82
  }
]

// pKi lookup, molecule = CC(C)(NC(=O)c1cc2c(n(CC3CCCCC3)c1=O)CCCCCC2)C(=O)N1CCC(NS(=O)(=O)C(C)(C)C)CC1 [Compound I-048] , result: 8.59

Data point: CC(C)(CNCCC(N)=O)NC(=O)c1cc2c(n(CC3CCCCC3)c1=O)CCCCCC2 [Compound I-588] ; pKi = 8.00

Documented pKi of O=C(NC(C(=O)O)C(F)(F)F)c1cc2c(n(CC3CCCCC3)c1=O)CCCCCC2 (stereo not shown) [Compound X-229] : 7.92

Notebook: CC(C)CCn1c2c(cc(C(=O)N[C@@H](C(=O)O)c3ccccc3)c1=O)CCCCCC2 [Compound I-424] , pKi read as 8.52

----------
compounds and their reported IC50
assayed.system: UniProtKB P21554
method.notes: cAMP formation inhibition experiment through a cannabinoid receptor (forskolin stimulation), CB1
Assay type: cell-based
Parameters: expressed in transfected cells; host or cells: CHO cells
test.context: inhibition of forskolin (4 μM)-stimulated cAMP formation, CHO cells expressing human CB1; read-out: Agonist activity (nM) CB1
// units = nM; emit number, no label

Examples from the recorded data:
[
  {
    "compound": "O=C(O)Cc1csc(NC(=O)c2cc3c(n(CC4CCCCC4)c2=O)CCCCCC3)n1 [IV-023]",
    "assayed.system": "UniProtKB P21554",
    "IC50 [nM]": 398
  },
  {
    "compound": "O=C(NC1(C(=O)O)CCCCCCC1)c1cc2c(n(CC3CCCCC3)c1=O)CCCCCC2 [Compound X-240]",
    "assayed.system": "UniProtKB P21554",
    "IC50 [nM]": 468
  }
]

Below: the item to evaluate.
Entry O=C(O)CCc1csc(NC(=O)c2cc3c(n(CC4CCCCC4)c2=O)CCCCCC3)n1 [Compound X-64] ; IC50 = 454

----------
assayed.system: CB1 receptor (Homo sapiens, UniProt P21554)
Sequence (P21554 whole entry): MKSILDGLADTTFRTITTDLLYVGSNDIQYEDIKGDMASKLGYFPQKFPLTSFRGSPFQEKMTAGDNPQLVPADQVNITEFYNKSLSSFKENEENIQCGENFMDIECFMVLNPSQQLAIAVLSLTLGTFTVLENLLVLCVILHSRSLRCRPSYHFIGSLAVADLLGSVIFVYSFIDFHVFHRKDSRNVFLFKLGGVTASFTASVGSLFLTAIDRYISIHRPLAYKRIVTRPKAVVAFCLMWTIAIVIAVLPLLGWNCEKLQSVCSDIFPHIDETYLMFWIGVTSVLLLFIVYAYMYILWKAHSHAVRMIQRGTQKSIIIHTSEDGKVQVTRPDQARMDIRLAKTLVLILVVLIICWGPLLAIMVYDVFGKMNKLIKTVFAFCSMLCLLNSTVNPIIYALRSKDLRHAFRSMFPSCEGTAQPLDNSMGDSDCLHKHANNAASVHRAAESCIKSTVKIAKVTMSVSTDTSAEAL
method.notes: Human cannabinoid receptor bonding inhibition test ([3H]CP55940), CB1
Type: binding
Parameters: expressed in transfected cells; membrane fraction
test.context: [3H]CP55940 0.5 nM, membrane preparation of CHO cells expressing CB1; Ki calculated from IC50; read-out: Binding activity (nM) CB1
Reported Ki values for the following compounds.
Give the quantity in nM, number only.

Solved entries:
[
  {
    "compound": "CCNC(=O)C1CCCN(C(=O)C(C)(C)NC(=O)c2cc3c(n(CC4CCCCC4)c2=O)CCCCCC3)C1 (centres unmarked) [Compound I-595]",
    "assayed.system": "CB1 receptor (Homo sapiens, UniProt P21554)",
    "Ki (nM)": 354
  },
  {
    "compound": "CCCCn1c2c(cc(C(=O)NC(CCC(=O)O)CC(C)C)c1=O)CCCCCC2 (centres unmarked) [Compound X-202]",
    "assayed.system": "CB1 receptor (Homo sapiens, UniProt P21554)",
    "Ki (nM)": 1180
  },
  {
    "compound": "CCS(=O)(=O)NNC(=O)C(C)(C)NC(=O)c1cc2c(n(CC3CCCCC3)c1=O)CCCCCC2 [Compound I-596]",
    "assayed.system": "CB1 receptor (Homo sapiens, UniProt P21554)",
    "Ki (nM)": 341
  },
  {
    "compound": "CC(C)C[C@@H](CC(=O)O)NC(=O)c1cc2c(n(Cc3ccc(F)cc3)c1=O)CCCCCC2 [II-078]",
    "assayed.system": "CB1 receptor (Homo sapiens, UniProt P21554)",
    "Ki (nM)": 1450
  },
  {
    "compound": "C/C=C/C(CC(=O)O)NC(=O)c1cc2c(n(CC3CCCCC3)c1=O)CCCCCC2 (centres unmarked) [II-075]",
    "assayed.system": "CB1 receptor (Homo sapiens, UniProt P21554)",
    "Ki (nM)": 652
  }
]

Record O=C(O)Cc1nsc(NC(=O)c2cc3c(n(CC4CCCCC4)c2=O)CCCCCC3)n1 [Compound X-21] , field Ki: 1770

The compound O=C(O)Cc1csc(NC(=O)c2cc3c(n(CC4CCCCC4)c2=O)CCCCCC3)n1 [IV-023] showed Ki equal to 425

The compound listed as CCCCn1c2c(cc(C(=O)NC3(CC(=O)O)CCCCC3)c1=O)CCCCCC2 [Compound X-157] shows Ki equal to 270

The compound listed as CC(C)CCn1c2c(cc(C(=O)N[C@@H](C(=O)O)c3ccccc3)c1=O)CCCCCC2 [Compound I-424] has a reported Ki of 357

Summary for this compound, O=C(O)Cc1csc(NC(=O)c2cc3c(n(CC4CCCCC4)c2=O)CCCCCC3)c1 [IV-029] : Ki is 1320
